- Assay target: IRAK-4 (Homo sapiens, UniProt Q9NWZ3)
- Method notes: IRAK-4 ELISA, OCI-Ly10 degradation
- Assay type: cell-based
- Set-up: endogenous in cells
- Assay conditions: OCI-Ly10, OCI-Ly10 cells, treated overnight
Quantity: Dmax

COc1cc2nn([C@H]3CCN(CC4CCN(c5ccc6c(c5)C(=O)N(C5CCC(=O)NC5=O)C6=O)CC4)C[C@@H]3F)cc2cc1NC(=O)c1cnn2cccnc12 (some centres unmarked): ≥ 90%
O=C1CCC(N2Cc3cc(N4CCC(CN5CCC(n6cc7cc(NC(=O)c8cnn9cc(Cl)cnc89)c(OCC8CC8)cc7n6)CC5)CC4)ccc3C2=O)C(=O)N1 (centres unmarked): 80 to 90%
O=C1CCC(N2C(=O)c3ccc(N4CC(N5CCC(N6Cc7cc(NC(=O)c8cnn9cccnc89)c(N8CCC(N9CCC9)CC8)cc7C6=O)CC5)C4)cc3C2=O)C(=O)N1 (centres unmarked): ≥ 90%

Endpoint output: Dmax of COc1cc2nn(C3CCN(CC4CN(c5ccc6c(c5)C(=O)N(C5CCC(=O)NC5=O)C6=O)C4)CC3)cc2cc1NC(=O)c1cnn2cccnc12 (centres unmarked) . Value?
≥ 90%

Endpoint output: Dmax of COc1cc2nn(C3CCN(CC4CN(c5ccc(C(=O)NC6CCC(=O)NC6=O)c(F)c5)C4)CC3)cc2cc1NC(=O)c1cnn2cccnc12 (centres unmarked) . Value?
80 to 90%

Endpoint output: Dmax of CC(C)(O)c1cc2nn(C3CCN(CC4CN(c5ccc6c(c5)C(=O)N(C5CCC(=O)NC5=O)C6=O)C4)CC3)cc2cc1NC(=O)c1cnn2cc(Cl)cnc12 (centres unmarked) . Value?
80 to 90%

Endpoint output: Dmax of O=C1CCC(N2C(=O)c3ccc(OCCOCCN4CCC(n5cc6cc(NC(=O)c7cnn8cc(Cl)cnc78)c(OCC7CC7)cc6n5)CC4)cc3C2=O)C(=O)N1 (centres unmarked) . Value?
≥ 90%

Endpoint output: Dmax of CC(C)Oc1cc2c(cc1NC(=O)c1cnn3cccnc13)CN(C1CCN(C3CN(c4cc5c(cc4F)C(=O)N(C4CCC(=O)NC4=O)C5=O)C3)CC1)C2=O (centres unmarked) . Value?
≥ 90%

###

- Assay target: IRAK-4 (Homo sapiens)
- Method notes: IRAK-4 ELISA, PBMC degradation
- Format: cell-based
- Design: endogenous in cells; host or cells: PBMC
- Assay conditions: treated overnight
Known Dmax of a selection of compounds

Worked examples follow.
COc1cc2nn([C@H]3CC[C@H](N(C)CC#Cc4ccc5c(c4)C(=O)N(C4CCC(=O)NC4=O)C5=O)CC3)cc2cc1NC(=O)c1cnn2cccnc12 (some centres unmarked) [Example 338]: ≥ 90%
O=C1CCC(N2Cc3cc(N4CCC(CN5CCC(N6Cc7cc(NC(=O)c8cnn9cccnc89)c(N8CCC(N9CCC9)CC8)cc7C6=O)CC5)CC4)ccc3C2=O)C(=O)N1 (centres unmarked) [Example 97]: 80 to 90%
CC(C)Oc1cc2c(cc1NC(=O)c1cnn3cccnc13)CN(C1CCC(N(C)C3CN(c4ccc5c(c4)CN(C4CCC(=O)NC4=O)C5=O)C3)CC1)C2=O (centres unmarked) [Example 314]: 80 to 90%

GET /values?readout=Dmax&system=IRAK-4 (Homo sapiens)&item= O=C1CCC(N2Cc3cc(N4CC(F)(CN5CCC(n6cc7cc(NC(=O)c8cnn9cccnc89)c(OCC8CC8)cc7n6)CC5)C4)cc(F)c3C2=O)C(=O)N1 (centres unmarked) [Example 420]
≥ 90%

GET /values?readout=Dmax&system=IRAK-4 (Homo sapiens)&item= COc1cc(N2CC(F)(CN3CCC(n4cc5cc(NC(=O)c6cnn7cccnc67)c(OC(C)C)cc5n4)CC3)C2)cc2c1C(=O)N(C1CCC(=O)NC1=O)C2=O (centres unmarked) [Example 217]
80 to 90%

###

- Assay target: IRAK-4 (Homo sapiens)
- Method notes: IRAK-4 ELISA, PBMC degradation
- Assay type: cell-based
- Design: endogenous in cells; host or cells: PBMC
- Assay conditions: treated overnight
Known Dmax of a selection of molecules

Endpoint output: Dmax of COc1cc2nn(C3CCN(CC4CN(c5ccc6c(c5)C(=O)N(C5CCC(=O)NC5=O)C6=O)C4)CC3)cc2cc1NC(=O)c1cnn2cccnc12 (stereo not drawn) . Value?
≥ 90%

Endpoint output: Dmax of CN(C1CCC(n2cc3cc(NC(=O)c4cnn5cccnc45)c(OCC4CC4)cc3n2)CC1)C1CCN(c2ccc3c(c2)C(=O)N(C2CCC(=O)NC2=O)C3=O)CC1 (stereo not drawn) . Value?
≥ 90%

Endpoint output: Dmax of O=C1CCC(N2C(=O)c3ccc(N4CCN(CCN5CCC(n6cc7cc(NC(=O)c8cnn9cccnc89)c(OCC8CC8)cc7n6)CC5)CC4)cc3C2=O)C(=O)N1 (stereo not drawn) . Value?
≥ 90%

###

- Assay target: IRAK-4 (Homo sapiens, UniProt Q9NWZ3)
- Sequence (Q9NWZ3 1-460): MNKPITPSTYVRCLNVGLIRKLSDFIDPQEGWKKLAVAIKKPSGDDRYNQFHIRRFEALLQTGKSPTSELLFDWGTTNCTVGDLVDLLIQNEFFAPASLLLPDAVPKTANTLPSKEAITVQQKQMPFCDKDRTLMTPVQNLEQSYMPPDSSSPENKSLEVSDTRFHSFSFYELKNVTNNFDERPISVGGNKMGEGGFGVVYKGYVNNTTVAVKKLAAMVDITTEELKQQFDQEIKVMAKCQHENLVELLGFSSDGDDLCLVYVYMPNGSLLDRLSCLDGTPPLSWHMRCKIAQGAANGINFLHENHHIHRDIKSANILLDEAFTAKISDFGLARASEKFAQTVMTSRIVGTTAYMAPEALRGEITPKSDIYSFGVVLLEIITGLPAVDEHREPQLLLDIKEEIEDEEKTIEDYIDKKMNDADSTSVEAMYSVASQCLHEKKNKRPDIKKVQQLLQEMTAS
- Method notes: IRAK-4 ELISA, PBMC degradation
- Type: cell-based
- Design: endogenous in cells; host or cells: PBMC
- Assay conditions: treated overnight
Quantity: PBMC DC90

GET /values?readout=PBMC DC90&system=IRAK-4 (Homo sapiens, UniProt Q9NWZ3)&item= CC(C)Oc1cc2c(cc1NC(=O)c1cnn3cccnc13)CN(C1CCN(CC3CCN(c4ccc5c(c4)CN(C4CCC(=O)NC4=O)C5=O)CC3)CC1)C2=O (stereo not drawn)
6 nM

###

- Assay target: IRAK-4 (Homo sapiens, UniProt Q9NWZ3)
- Method notes: IRAK-4 ELISA, OCI-Ly10 degradation
- Format: cell-based
- Set-up: endogenous in cells
- Assay conditions: OCI-Ly10 cells, treated overnight
Quantity: DC50

O=C1CCC(N2C(=O)c3ccc(N4CCC(CN5CCC([C@H](F)Cn6cc7cc(NC(=O)c8cnn9cccnc89)c(OCC8CC8)cc7n6)CC5)CC4)cc3C2=O)C(=O)N1 (some centres unmarked) [Example 182]: < 10 nM
O=C1CCC(N2Cc3cc(N4CCC(F)(CN5CCC(n6cc7cc(NC(=O)c8cnn9cccnc89)c(OCC8CC8)cc7n6)CC5)CC4)ccc3C2=O)C(=O)N1 (centres unmarked) [Example 278]: < 10 nM
O=C1CCC(N2C(=O)c3ccc(N4CC(N5CCC(N6Cc7cc(NC(=O)c8cnn9cccnc89)c(N8CCC(N9CCC9)CC8)cc7C6=O)CC5)C4)cc3C2=O)C(=O)N1 (centres unmarked) [Example 99]: < 10 nM
COc1cc2nn([C@H]3CC[C@H](N(C)CC#Cc4ccc5c(c4)C(=O)N(C4CCC(=O)NC4=O)C5=O)CC3)cc2cc1NC(=O)c1cnn2cccnc12 (some centres unmarked) [Example 340]: 10 to 50 nM

Please turn your attention to the following entry.
GET /values?readout=DC50&system=IRAK-4 (Homo sapiens, UniProt Q9NWZ3)&item= COc1cc2nn([C@H]3CC[C@H](N(C)C4CN(c5ccc6c(c5)CN(C5CCC(=O)NC5=O)C6=O)C4)CC3)cc2cc1NC(=O)c1cnn2cccnc12 (some centres unmarked) [Example 337]
< 10 nM

###

Known Emax of a selection of compounds
- System: IL6
- Method notes: IL-1β stimulated IL6 inhibition assay in PBMC
- Format: cell-based
- Assay conditions: PBMC; human PBMCs, IL-1β stimulation, compound overnight, IL6 by MSD after 24 hrs; read-out: IL1β stim IL6 inhibition Ymax

CN(C1CN(c2ccc3c(c2)C(=O)N(C2CCC(=O)NC2=O)C3=O)C1)[C@H]1CC[C@H](n2cc3cc(NC(=O)c4cnn5cccnc45)c(OCC4CC4)cc3n2)CC1 (some centres unmarked): ≥ 90%
COc1cc(N2CCC(CN3CCC(N4Cc5cc(NC(=O)c6cnn7cccnc67)c(OC(C)C)cc5C4=O)CC3)CC2)cc2c1C(=O)N(C1CCC(=O)NC1=O)C2=O (centres unmarked): 80 to 90%
CC(C)Oc1cc2c(cc1NC(=O)c1cnn3cccnc13)CN([C@H]1CC[C@H](N3CCN(c4ccc5c(c4)C(=O)N(C4CCC(=O)NC4=O)C5=O)CC3)CC1)C2=O (some centres unmarked): ≥ 90%
O=C1CCC(N2Cc3cc(N4CCC(F)(CN5CCC(n6cc7cc(NC(=O)c8cnn9cccnc89)c(OCC8CC8)cc7n6)CC5)CC4)ccc3C2=O)C(=O)N1 (centres unmarked): ≥ 90%
O=C1CCC(NC(=O)c2ccc(N3CC(CN4CCC(n5cc6cc(NC(=O)c7cnn8cccnc78)c(OCC7CC7)cc6n5)CC4)C3)cc2F)C(=O)N1 (centres unmarked): ≥ 90%
COc1cc2nn(C3CCN(CC4CN(c5ccc6c(c5)C(=O)N(C5CCC(=O)NC5=O)C6=O)C4)CC3)cc2cc1NC(=O)c1cnn2cccnc12 (centres unmarked): 80 to 90%

Endpoint output: Emax of O=C1CCC(N2Cc3cc(N4CCC(CN5CCC(N6Cc7cc(NC(=O)c8cnn9cccnc89)c(OCC8CC8)cc7C6=O)CC5)CC4)ccc3C2=O)C(=O)N1 (centres unmarked) . Value?
≥ 90%

Endpoint output: Emax of O=C1CCC(N2Cc3cc(CCN4CCC(N5Cc6cc(NC(=O)c7cnn8cccnc78)c(N7CCOCC7)cc6C5=O)CC4)ccc3C2=O)C(=O)N1 (centres unmarked) . Value?
70 to 80%

Endpoint output: Emax of O=C1CCC(N2C(=O)c3ccc(N4CCC(CN5CC[C@H](n6cc7cc(NC(=O)c8cnn9cccnc89)c(OCC8CC8)cc7n6)[C@@H](F)C5)CC4)cc3C2=O)C(=O)N1 (some centres unmarked) . Value?
80 to 90%

Endpoint output: Emax of O=C1CCC(N2C(=O)c3ccc(N4CCC(CN5CCC(N6Cc7cc(NC(=O)c8cnn9cccnc89)c(N8CCOCC8)cc7C6=O)CC5)CC4)cc3C2=O)C(=O)N1 (centres unmarked) . Value?
≥ 90%

Endpoint output: Emax of O=C1CCC(N2Cc3cc(N4CC(CN5CCC(n6cc7cc(NC(=O)c8cnn9cccnc89)c(OCC8CC8)cc7n6)CC5)C4)ccc3C2=O)C(=O)N1 (centres unmarked) . Value?
≥ 90%

# credit: patent US20230099344A1
